Target or test system: FLNA pentapeptide of SEQ ID NO: 1 (Bn-VAKGL) (Homo sapiens, UniProt P21333)
Protocol details: FITC-NLX-based FLNA screening assay (inhibition of FITC-naloxone binding to Bn-VAKGL on streptavidin plates)
Measurement conditions: FLNA-binding compound 1 μM; 10 nM FITC-NLX; read-out: Percent Binding Inhibition
Parameter: inhibition at 1 µM (%)
Unit % implied. Number only.

# example entries with known answers
>>> df
                                   compound           parameter  measure_unit  numeric_result
0  O=[N+]([O-])c1ccc(S(=O)(=O)N2CCC3(CC2)NCCO3)cc1 [Compound C0040]  inhibition at 1 µM             %            55.9
1  Cc1ccc(C(C)C)c(OCC(O)CN2CC(C)OC(C)C2)c1 (centres unmarked) [Compound A0028]  inhibition at 1 µM             %            50.5
2  COc1ccccc1CC(O)CC1c2c(cc3c(c2OC)OCO3)CCN1C (centres unmarked) [Compound B0030]  inhibition at 1 µM             %            57.6
3  OC(COc1ccc(Br)c(F)c1)CN1CCc2ccccc2C1 (centres unmarked) [Compound A0057]  inhibition at 1 µM             %            43.4

Turning now to a further compound:
Prompt line: Query: inhibition at 1 µM; subject: CC1CCC(C(C)C)C(OCC(O)CN2CCCN(C)CC2)C1 (centres unmarked) [Compound A0010]
Response line: 39
